Assignment: determine reported inhibition for the given molecules.
- target under test: Cannabinoid receptor 1 (Homo sapiens)
- Sequence (P21554 whole entry): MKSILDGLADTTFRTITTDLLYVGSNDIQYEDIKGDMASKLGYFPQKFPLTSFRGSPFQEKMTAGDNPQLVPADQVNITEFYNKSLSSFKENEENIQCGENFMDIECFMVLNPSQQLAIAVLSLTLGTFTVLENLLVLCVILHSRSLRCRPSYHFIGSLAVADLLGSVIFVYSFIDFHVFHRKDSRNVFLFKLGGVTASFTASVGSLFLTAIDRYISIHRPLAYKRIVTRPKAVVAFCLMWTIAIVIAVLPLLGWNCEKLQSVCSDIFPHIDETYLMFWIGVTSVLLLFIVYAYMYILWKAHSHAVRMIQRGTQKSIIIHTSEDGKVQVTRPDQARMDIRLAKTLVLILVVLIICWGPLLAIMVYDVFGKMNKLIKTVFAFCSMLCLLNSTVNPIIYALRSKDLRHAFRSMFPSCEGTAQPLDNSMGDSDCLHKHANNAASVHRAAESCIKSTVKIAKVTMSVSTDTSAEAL
- condition context: CHO, at 10 µM
Quote the value and follow it with the unit of measurement.

Lab book: inhibition of Cc1ccc(Cn2c(-c3ccc(C)cc3)nn(C(=O)NC3CCCCC3)c2=O)cc1 noted as 60.9%

# inhibition (molecule: COc1ccc(-n2c(-c3ccc(Cl)cc3)nn(C(=O)Nc3ccc(C)cc3)c2=O)cc1 ) is 74.6%

The molecule identified as COc1ccc(-c2nn(C(=O)NC3CCCCC3)c(=O)n2-c2ccc(C)cc2)cc1 registered its inhibition at 98%

Item: Cc1ccc(Cn2c(-c3ccc(Cl)cc3)nn(C(=O)NC3CCCCC3)c2=O)cc1 | inhibition: 42.6%

Memo: COc1ccc(-n2c(-c3ccc(Cl)cc3)nn(C(=O)NC3CCCCC3)c2=O)cc1 , reported inhibition: 98.6%

Lookup result for COc1ccc(-c2nn(C(=O)Nc3ccc(Cl)cc3)c(=O)n2-c2ccc(C)cc2)cc1 ; measured inhibition: 90.5%

Form field inhibition, entry Cc1ccc(Cn2c(-c3ccc(C)cc3)nn(C(=O)Nc3ccc(Cl)cc3)c2=O)cc1 : 89%

Documented inhibition of CCCCCOc1c(OC)ccc2cc(C(=O)NCc3ccc4c(c3)OCO4)c(=O)[nH]c12 : 37.6%

Looking up Cc1ccc(NC(=O)n2nc(-c3ccc(C)cc3)n(-c3ccc(Cl)cc3)c2=O)cc1 , I see its inhibition listed as 91.9%

// inhibition lookup, molecule = COc1ccc(-c2nn(C(=O)Nc3ccc(C)cc3)c(=O)n2-c2ccc(Cl)cc2)cc1 , result: 96.6%

Please fill in: inhibition reported for Cc1ccc(-n2c(-c3ccc(Cl)cc3)nn(C(=O)NC3CCCCC3)c2=O)cc1 = 102%

The molecule identified as Cc1ccc(-c2nn(C(=O)NC3CCCCC3)c(=O)n2-c2ccc(Cl)cc2)cc1 registered its inhibition at 98.2%

Form field inhibition, entry Cc1ccc(Cn2c(-c3ccc(Cl)cc3)nn(C(=O)Nc3ccc(C)cc3)c2=O)cc1 : 36.8%

// recorded inhibition for COc1ccc(-c2nn(C(=O)NC3CCCCC3)c(=O)n2-c2ccc(Cl)cc2)cc1 : 96.5%
